- system-name: full-length MALT1 protein His-MALT1(1-824) (Homo sapiens, UniProt Q9UDY8)
- Construct: full-length MALT1 protein His-MALT1(1-824); His (N); made in house; host or cells: baculovirus-infected insect cells
- Sequence (Q9UDY8 whole entry): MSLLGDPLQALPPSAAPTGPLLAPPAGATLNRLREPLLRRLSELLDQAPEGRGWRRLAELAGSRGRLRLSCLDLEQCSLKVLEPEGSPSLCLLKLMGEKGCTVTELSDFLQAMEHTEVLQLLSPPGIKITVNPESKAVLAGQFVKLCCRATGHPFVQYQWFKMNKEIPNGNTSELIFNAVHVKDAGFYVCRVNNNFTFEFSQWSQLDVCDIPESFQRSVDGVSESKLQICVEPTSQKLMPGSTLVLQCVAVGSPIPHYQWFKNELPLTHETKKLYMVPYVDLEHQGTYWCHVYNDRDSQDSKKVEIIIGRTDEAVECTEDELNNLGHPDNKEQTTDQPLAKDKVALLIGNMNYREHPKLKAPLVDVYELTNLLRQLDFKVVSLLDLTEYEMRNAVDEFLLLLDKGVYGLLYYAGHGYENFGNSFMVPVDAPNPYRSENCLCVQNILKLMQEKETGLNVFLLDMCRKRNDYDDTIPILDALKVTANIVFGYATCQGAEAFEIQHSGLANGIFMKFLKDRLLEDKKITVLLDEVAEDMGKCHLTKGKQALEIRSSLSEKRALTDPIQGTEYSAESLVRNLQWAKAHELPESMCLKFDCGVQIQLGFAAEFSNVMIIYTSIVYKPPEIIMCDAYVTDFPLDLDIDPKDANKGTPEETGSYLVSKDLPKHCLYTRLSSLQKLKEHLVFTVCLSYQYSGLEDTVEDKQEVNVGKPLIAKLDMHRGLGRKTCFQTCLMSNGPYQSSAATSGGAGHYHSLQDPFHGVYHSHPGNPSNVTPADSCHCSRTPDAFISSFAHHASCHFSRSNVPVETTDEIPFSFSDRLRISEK
- test-description: MALT1 protease assay, Assay 2 (1 nM MALT1, Ac-LRSR-AMC substrate)
- Format: biochemical
- measurement-setup: 1 nM MALT1, 50 μM Ac-LRSR-AMC, 2 h pre-incubation, 8 hr incubation at RT
assay-readout: IC50

Query IC50 for CC1(C)CC(C(=O)Nc2cnc(N=S(C)(C)=O)c(Cl)c2)c2cnc3cc(F)nn3c21 (single isomer, unassigned) [Example 131]
≥ 1000 nM

Provide IC50 value for the following molecule: CC1(C)CC(C(=O)Nc2cc(C(F)F)c(-c3cnco3)c(=O)[nH]2)c2cnc3cc(Cl)nn3c21 (stereo not shown) [Example 59]
10 to 100 nM

Provide only the value of recorded IC50 for CC1(C)CC(C(=O)Nc2cnc(-c3nnn(C4COC4)n3)c(Cl)c2)c2cnc3cc(Cl)nn3c21 (stereo not shown) [Example 162]
10 to 100 nM

# return recorded IC50 for input N#Cc1cc(NC(=O)[C@@H]2CC3(CCC3)c3c2cnc2cc(F)nn32)cnc1OC(F)F (single isomer, unassigned) [Example 102]
100 to 1000 nM

Consider the molecule C[C@@H](O)c1cnn(-c2ncc(NC(=O)[C@@H]3CC4(CCC4)c4c3cnc3cc(Cl)nn43)cc2Cl)n1 (single isomer, unassigned) [Example 161] and give its recorded IC50.
≥ 1000 nM

Please report IC50 for the following molecule: CC1(C)C[C@@H](C(=O)Nc2cnc(-n3nccn3)c(Cl)c2)c2cnc3c(F)c(F)nn3c21 (single isomer, unassigned) [Example 121]
100 to 1000 nM

Output IC50 of C[C@]1(C(F)(F)F)C[C@@H](C(=O)Nc2cnc(-n3nccn3)c(C(F)F)c2)c2cnc3cc(Cl)nn3c21 (single isomer, unassigned) [Example 63]
100 to 1000 nM

Provide only the value of recorded IC50 for C[C@]1(C(F)(F)F)C[C@H](C(=O)Nc2cnc(-n3nccn3)c(Cl)c2)c2cnc3cc(F)nn3c21 (single isomer, unassigned) [Example 187]
10 to 100 nM

Hello, please tell me recorded IC50 for this one: CC(C)(C)C1OC(=O)c2cc(NC(=O)C3CC4(CCC4)c4c3cnc3cc(F)nn43)cnc21 (stereo not shown) [Example 166]
≥ 1000 nM

Check the records and state IC50 for CC1(C)CC(C(=O)Nc2cnc(C(=O)N3CC(F)(F)C3)c(C(F)F)c2)c2cnc3cc(Cl)nn3c21 (stereo not shown) [Example 174]
100 to 1000 nM

Tell us which IC50 value is on record for CC1(C)C[C@@H](C(=O)Nc2cc(C(F)F)c(-c3ncco3)c(=O)[nH]2)c2cnc3cc(Cl)nn3c21 (single isomer, unassigned) [Example 57]
100 to 1000 nM

Query IC50 for O=C(Nc1cnc(-n2nccn2)c(C(F)(F)F)c1)[C@H]1C[C@@]2(CCO2)c2c1cnc1cc(Cl)nn21 (racemic) [Example 116]
100 to 1000 nM

Output IC50 of C[C@]1(C(F)(F)F)C[C@@H](C(=O)Nc2cnc(-n3nccn3)c(Cl)c2)c2cnc3cc(F)nn3c21 (single isomer, unassigned) [Example 184]
100 to 1000 nM

Give the reported IC50 for this molecule. CC1(C)C[C@H](C(=O)Nc2cc(C#N)c(OC(F)F)cn2)c2cnc3cc(F)nn3c21 (single isomer, unassigned) [Example 170]
10 to 100 nM

Please supply the value of reported IC50 for the item CC1(C)CC(C(=O)Nc2cc(C(F)F)c(-c3cc[nH]n3)c(=O)[nH]2)c2cnc3cc(Cl)nn3c21 (stereo not shown) [Example 43]
10 to 100 nM

Identify IC50 associated with the molecule CC1(C)CC(O)(C(=O)Nc2cnc(-n3nccn3)c(Cl)c2)c2cnc3cc(Cl)nn3c21 (stereo not shown) [Example 69]
≥ 1000 nM

State its IC50: C[C@@]1(C(F)(F)F)C[C@H](C(=O)Nc2cnc(-n3nccn3)c(C(F)F)c2)c2cnc3cc(Cl)nn3c21 (single isomer, unassigned) [Example 64]
10 to 100 nM

Supply recorded IC50 for CC1(C)CC(C(=O)Nc2cnc(-n3nccn3)c(C(F)F)c2)c2cnc3cc(Cl)nn3c21 (single isomer, unassigned) [Example 47] here.
< 10 nM

Give a short answer stating reported IC50 for CC1(C)CC(C(=O)Nc2cnc(-n3ncc(C4COC4)n3)c(Cl)c2)c2cnc3cc(Cl)nn3c21 (single isomer, unassigned) [Example 111] .
< 10 nM

In one line, give reported IC50 of the entry CC1(C)C[C@@H](C(=O)Nc2cnc(-n3nccn3)c(C#N)c2)c2cnc3cc(C(F)F)nn3c21 (single isomer, unassigned) [Example 129] .
100 to 1000 nM

# return recorded IC50 for input CC1(C)CC(C(=O)Nc2cnc(N3CCCC3=O)c(Cl)c2)c2cnc3cc(F)nn3c21 (stereo not shown) [Example 175]
≥ 1000 nM

// fetch IC50 given entry CC1(C)C[C@](C)(C(=O)Nc2cnc(-n3nccn3)c(Cl)c2)c2cnc3cc(Cl)nn3c21 (single isomer, unassigned) [Example 138]
≥ 1000 nM

Please indicate IC50 recorded for CC1(C)CC(C(=O)Nc2cnc(-n3nccn3)c(Cl)c2)c2cnc3c(F)cnn3c21 (single isomer, unassigned) [Example 101]
10 to 100 nM

Provide IC50 value for the following molecule: Cc1c(F)nn2c3c(cnc12)C(C(=O)Nc1cnc(-n2nccn2)c(Cl)c1)CC3(C)C (single isomer, unassigned) [Example 114]
100 to 1000 nM

# return recorded IC50 for input CC1(C)CC(C(=O)Nc2cnc(-n3nccn3)c(Cl)c2)c2cnn3cc(C(F)F)nc3c21 (single isomer, unassigned) [Example 203]
10 to 100 nM

* * *

- system-name: full-length MALT1 protein His-MALT1(1-824) (Homo sapiens, UniProt Q9UDY8)
- Construct: full-length MALT1 protein His-MALT1(1-824); His (N); made in house; host or cells: baculovirus-infected insect cells
- test-description: MALT1 protease assay, Assay 1 (2 nM MALT1, Ac-LRSR-AMC substrate)
- Assay type: biochemical
- measurement-setup: 2 nM MALT1, 50 μM Ac-LRSR-AMC, 2 h pre-incubation, 8 hr incubation at RT
Can you tell me IC50 for the items I'm about to list?

Tell me its IC50 on full-length MALT1 protein His-MALT1(1-824) (Homo sapiens, UniProt Q9UDY8): CC1(C)CCC(C(=O)Nc2cnc(-n3nccn3)c(Cl)c2)c2cnc3cc(Cl)nn3c21 (stereo not drawn) [Example 7]
10 to 100 nM

Lab note: record IC50 of CC1(C)C[C@@H](C(=O)Nc2cnc(-n3nccn3)c(Cl)c2)c2cnc3cc(C#N)nn3c21 (single isomer, unassigned) tested on full-length MALT1 protein His-MALT1(1-824) (Homo sapiens, UniProt Q9UDY8).
≥ 1000 nM

Give measured IC50 for CC1(C)C[C@H](C(=O)Nc2cnc([C@H]3CCCO3)c(Cl)c2)c2cnc3cc(Cl)nn3c21 (single isomer, unassigned) (full-length MALT1 protein His-MALT1(1-824) (Homo sapiens, UniProt Q9UDY8)).
10 to 100 nM

* * *

- system-name: full-length MALT1 protein His-MALT1(1-824) (Homo sapiens, UniProt Q9UDY8)
- Construct: full-length MALT1 protein His-MALT1(1-824); His (N); made in house; host or cells: baculovirus-infected insect cells
- test-description: MALT1 protease assay, Assay 2 (1 nM MALT1, Ac-LRSR-AMC substrate)
- Assay type: biochemical
- measurement-setup: 1 nM MALT1, 50 μM Ac-LRSR-AMC, 2 h pre-incubation, 8 hr incubation at RT
assay-readout: IC50

Determine its reported IC50: CC1(C)C[C@@H](C(=O)Nc2cc(C#N)c(OC(F)F)cn2)c2cnc3cc(F)nn3c21 (single isomer, unassigned)
≥ 1000 nM

Using known records, supply IC50 for CC1(C)C[C@@H](C(=O)Nc2cnc(OC(F)F)c(C#N)c2)c2cnc3cc(C(F)F)nn3c21 (single isomer, unassigned)
≥ 1000 nM

Tell me measured IC50 for CC1(C)C[C@@H](C(=O)Nc2cnc(-n3nccn3)c(C(F)(F)F)c2)c2cnc3cc(Cl)nn3c21 (single isomer, unassigned) please.
≥ 1000 nM

Return reported IC50. Input compound: Cc1nnn(-c2ncc(NC(=O)C3CC(C)(C)c4c3cnc3cc(Cl)nn43)cc2Cl)n1 (single isomer, unassigned)
≥ 1000 nM

Entry C[C@@]1(C(F)(F)F)C[C@@H](C(=O)Nc2cnc(-n3nccn3)c(C(F)F)c2)c2cnc3cc(Cl)nn3c21 (single isomer, unassigned) needs its IC50 filled in; supply it.
100 to 1000 nM

Give reported IC50 value for Cn1nnc(-c2ncc(NC(=O)[C@@H]3CC(C)(C)c4c3cnc3cc(Cl)nn43)cc2Cl)n1 (single isomer, unassigned)
≥ 1000 nM

Please supply the value of reported IC50 for the item CC1(C)CC(C(=O)Nc2cnc(C(=O)N3CCC3)c(C(F)(F)F)c2)c2cnc3cc(Cl)nn3c21 (stereo not drawn)
10 to 100 nM

Return the recorded IC50 value; entry: CC1(C)CC(C(=O)Nc2cc(C#N)c(OC(F)F)nn2)c2cnc3cc(F)nn3c21 (stereo not drawn)
100 to 1000 nM

Please list IC50 recorded for the compound C[C@@]1(C(F)(F)F)C[C@H](C(=O)Nc2cnc(-n3nccn3)c(C(F)(F)F)c2)c2cnc3cc(Cl)nn3c21 (single isomer, unassigned) [Example 54]
< 10 nM

Assign IC50 to the following record: C[C@H](O)c1cnn(-c2ncc(NC(=O)[C@@H]3CC4(CCC4)c4c3cnc3cc(Cl)nn43)cc2Cl)n1 (single isomer, unassigned)
≥ 1000 nM

In one line, give reported IC50 of the entry C[C@]1(C(F)(F)F)C[C@H](C(=O)Nc2cnc(-n3nccn3)c(C(F)F)c2)c2cnc3cc(Cl)nn3c21 (single isomer, unassigned) .
10 to 100 nM

Give the value of IC50 reported for the following: CC1(C)CC(C(=O)Nc2cnc(OC(F)F)c(Cl)c2)c2cnc3cc(Cl)nn3c21 (single isomer, unassigned) [Example 67]
100 to 1000 nM
